- subjectOfTest: T1, human MSLN-FL-his protein (human, UniProt Q13421 296-580)
- T1 construct: also called human MSLN full-length protein; hMSLN-FL-his; not shown: His tag
- assayName: ELISA, coated MSLN full-length;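 further: binding of chimeric antibodies to plate-bound antigen, read by TMB colour after acid stop, antibody incubated 2 h at 37 °C, negative control antibody run alongside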
Below, each entry is listed with its recorded OD450 at 100 nM.
The response must be a number in OD450 with no trailing unit.

INSERT INTO assay_data (binder, unitdescriptor, reportedmeasurement) VALUES
  ('S009-F2.39.3 (antibody, human IgG1, kappa, V domains shown, Human-murine chimeric antibody, human IgG1/kappa constant regions) VH: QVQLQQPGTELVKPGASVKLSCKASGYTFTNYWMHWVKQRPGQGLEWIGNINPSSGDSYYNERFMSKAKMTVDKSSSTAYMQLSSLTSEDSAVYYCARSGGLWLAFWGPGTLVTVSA VL: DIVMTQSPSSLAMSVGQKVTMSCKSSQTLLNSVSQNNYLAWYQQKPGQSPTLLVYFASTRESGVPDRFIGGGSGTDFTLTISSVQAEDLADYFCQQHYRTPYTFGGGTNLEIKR', 'OD450', 2.53),
  ('S009-F2.21.4 (antibody, human IgG1, kappa, V domains shown, Human-murine chimeric antibody, human IgG1/kappa constant regions) VH: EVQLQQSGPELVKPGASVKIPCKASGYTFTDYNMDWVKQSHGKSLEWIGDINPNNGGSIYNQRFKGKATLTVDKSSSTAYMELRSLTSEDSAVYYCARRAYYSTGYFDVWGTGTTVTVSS VL: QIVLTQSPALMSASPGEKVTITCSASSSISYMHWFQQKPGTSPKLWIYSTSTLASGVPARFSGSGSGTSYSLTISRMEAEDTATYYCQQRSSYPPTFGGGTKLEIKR', 'OD450', 2.95);

From here, focus on the item given below.
## Input Need OD450 at 100 nM, item S009-F2.23.12 (antibody, human IgG1, kappa, V domains shown, Human-murine chimeric antibody, human IgG1/kappa constant regions) VH: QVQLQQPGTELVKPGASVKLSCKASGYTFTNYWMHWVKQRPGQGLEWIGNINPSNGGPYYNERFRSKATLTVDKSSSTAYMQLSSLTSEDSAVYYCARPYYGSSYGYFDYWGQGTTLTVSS VL: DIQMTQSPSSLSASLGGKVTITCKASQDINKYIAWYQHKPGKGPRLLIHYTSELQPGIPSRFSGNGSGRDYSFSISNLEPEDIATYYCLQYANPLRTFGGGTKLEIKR
## Output 2.72

The reported measurements were obtained from patent US20250250357A1.
